Measured HR, overall survival adjusted for Breslow thickness and lymph gland metastases, listed per entry.
Assay: Nation-wide register-based study, Cox regression: overall mortality/survival by antihistamine use
Type: in vivo, human
Details: hazard ratio versus non-users; adjusted for Breslow thickness and lymph gland metastases

Reference set (5 entries):
Clc1ccc2c(c1)CCc1cccnc1C2=C1CCNCC1	0.953
CN1CCC[C@@H]1CCO[C@](C)(c1ccccc1)c1ccc(Cl)cc1	1.101
CC(C)(C(=O)O)c1ccc(C(O)CCCN2CCC(C(O)(c3ccccc3)c3ccccc3)CC2)cc1 (stereo not drawn) [Fexofenadine, fexofenadine]	1.013
O=C(O)COCCN1CCN(C(c2ccccc2)c2ccc(Cl)cc2)CC1 (stereo not drawn)	0.991
CC(C)(C)c1ccc(C(=O)CCCN2CCC(OC(c3ccccc3)c3ccccc3)CC2)cc1	1.076

Here's the next entry for you.
If you can, please state the reported HR, overall survival adjusted for Breslow thickness and lymph gland metastases value of CCOC(=O)N1CCC(=C2c3ccc(Cl)cc3CCc3cccnc32)CC1 .
0.964

Recorded values, source patent US20220273638A1.
